Overview of recorded cytotoxicity at 10 µM for various compounds
- ASSAY REMARKS: Toxicity liver stage against HepG2, at 10uM
- Assay type: cell-based
- Set-up: test concentration 10 uM, cell line HepG2-A16-CD81EGFP
- ASSAY SETUP: human, HepG2-A16-CD81EGFP cells; read-out: INHIBITION
OBSERVATION TYPE: cytotoxicity at 10 µM (%)

# COMPOUND, RESULT NUMBER
rows = [
    ("CC(C)c1ccc(-n2nnc(C(=O)O)c2-c2ccccn2)cc1", 9.18),
    ("CN(Cc1ccc(C#N)cc1)CC1CCS(=O)(=O)C1 (configuration not stated)", -5.78),
    ("CC(Cn1ccnc1)NC(=O)NCc1cccnc1OC1CCCC1 (configuration not stated)", -13.3),
    ("CCC(NC(=O)NCC(=O)Nc1ccc(F)cc1)c1ccncc1 (configuration not stated)", -10.9),
    ("CN(Cc1ccccn1)C(=O)[C@]12COC[C@H]1CN(Cc1cnn(C)c1)C2", -9.74),
    ("Cc1ccc(-c2cc(CN3CCOC(Cn4cncn4)C3)on2)cc1 (configuration not stated)", -8.65),
    ("CCSc1ccc(C(C)NC(=O)CCS(C)(=O)=O)cc1 (configuration not stated)", 2.18),
    ("CC(C)CC(NC(=O)CN(C)c1cnccn1)c1cccs1 (configuration not stated)", 2.84),
    ("CO[C@@H]1CCN(S(=O)(=O)c2cccnc2)[C@@H]2CN(CC3CC3)C[C@@H]21", -65.7),
    ("Fc1ccc(-c2nc(CN3CCCC3Cn3cncn3)co2)cc1 (configuration not stated)", -8.28),
    ("Cn1cc(N2C(=O)CC[C@@H]3[C@H]2CCN3C(=O)c2cscn2)cn1", -81.5),
    ("O=C1[C@H]2CN(Cc3cccs3)C[C@H]2CN1c1ccsc1", -79),
    ("Cn1cnnc1C1CCCN(C(=O)CCc2ccc3c(c2)OCO3)C1 (configuration not stated)", 0.415),
    ("O=C(C(c1ccccc1)S(=O)(=O)c1ccccn1)N1CCCC1 (configuration not stated)", 7.27),
    ("CCCc1nnc(NC(=O)NC(C)Cn2cccn2)s1 (configuration not stated)", -4.05),
    ("NC(=O)CNC1(c2ccc(Cl)cc2)CCCC1", 13),
    ("Cc1nc(CN2CCC3(CCN(Cc4nccn4C)CC3)C2=O)cs1", -1.43),
    ("Cc1cccc(CN2C[C@@H]3CN(C(=O)c4conc4C)C[C@@H]3C2=O)c1", 2.66),
    ("CN(C)S(=O)(=O)c1ccc(CSCC(=O)NC(C)(C)C)o1", -1.82),
    ("Cc1nc(C(C)C)sc1C(=O)N(C)CCCc1cnn(C)c1", -4.6),
    ("COc1cc(OC)c(C2SCC(=O)Nc3n[nH]cc32)cc1OC (configuration not stated)", -6.08),
    ("CN(Cc1ccccn1)C(C(=O)O)c1ccc2c(c1)OCO2 (configuration not stated)", 1.16),
    ("CCNC(=O)c1ccnc(CC2COc3c(cccc3OC)C2)c1 (configuration not stated)", 0.441),
    ("CCCc1nn(Cc2csc(C(C)C)n2)c(=O)o1", -47.7),
    ("CN1CCCC2(CCN(C(=O)c3ccncc3)C2)C1 (configuration not stated)", -68.3),
    ("OCCN1CCN(CC2(O)CCCCC2)CC1", 3.66),
    ("O=C1N(Cc2ccc(F)c(F)c2)CCCC12CCN(C1CCCC1)C2 (configuration not stated)", -2.8),
    ("Cc1cc(-c2cc(N)c(=O)n(CC(=O)NCC3CCCCC3)n2)c(C)o1", -21.1),
    ("O=C(CN1CCC(N2CCNC2=O)CC1)NCC(F)(F)F", -3.35),
    ("COc1ccc(S(=O)(=O)N2CCC(Cn3ccnc3)CC2)cc1", -0.178),
    ("Cc1cnc(N2CCOC3(CCCN(C)C3)C2)nc1 (configuration not stated)", 8.25),
    ("CC(C)n1ccnc1CN1CCCN(C(=O)c2cc(Cl)c[nH]2)CC1", -3.79),
    ("Cc1cnc(-c2nc(O)c3c(n2)CN(C(=O)C2CC2)CC3)cn1", -6.74),
    ("CCc1ncc2c(n1)CN(C(C)C(=O)N1CCOCC1)CC2 (configuration not stated)", -8.52),
    ("CCN1CCN(c2ccc(F)cc2C(C)NCc2ccccn2)CC1 (configuration not stated)", 7.96),
    ("CCN(C)c1ncnc2c1CCN(C(=O)[C@H]1CCCO1)CC2", 3.38),
    ("CC(=O)N[C@H]1CN(CC(=O)NCc2ccccc2C)C[C@@H]1C(C)C", 1.69),
    ("CCN(Cc1nccn1C)C(=O)c1ccc(NCc2ccc(C)o2)nc1", 9.78),
    ("CC1(C)CC2(CCO1)NC(=O)c1cc(Br)ccc1-n1nnnc12 (configuration not stated)", 5.97),
    ("Cc1ccc(S(=O)(=O)n2ccc(C(=O)NCC(F)(F)F)c2)cc1", -4.78),
    ("O=C(c1ccccc1-n1cnnn1)N1CCC2(CC1)OCCO2", 1.5),
    ("COc1nccnc1N1CCN(Cc2ccc(F)cc2)C(=O)C1", 1.27),
    ("CC(C)C(NC(=O)c1ccccc1F)C(=O)Nc1cnn(C)c1 (configuration not stated)", -7.58),
    ("Cn1cc(C2CC(=O)NC23CCN(C(=O)c2cccnc2)CC3)cn1 (configuration not stated)", -79.7),
    ("CS(=O)(=O)N1CCC2(CC1)CC(CC(=O)N1CCCC1)c1ccccc12 (configuration not stated)", -0.748),
    ("COCCN(C)C(C(=O)O)c1ccc(F)c(Cl)c1 (configuration not stated)", 12.2),
    ("NC(=O)CN(Cc1cccc(Oc2ccccc2)c1)C(=O)C1CC1", 4.59),
]

Entry source: ChEMBL document CHEMBL4513216
